measured-on: porcine pancreatic elastase (PPE) (Sus scrofa, UniProt P00772)
Construct: purchased Sigma-Aldrich (St. Louis, MO, United States)
Sequence (P00772 27-266): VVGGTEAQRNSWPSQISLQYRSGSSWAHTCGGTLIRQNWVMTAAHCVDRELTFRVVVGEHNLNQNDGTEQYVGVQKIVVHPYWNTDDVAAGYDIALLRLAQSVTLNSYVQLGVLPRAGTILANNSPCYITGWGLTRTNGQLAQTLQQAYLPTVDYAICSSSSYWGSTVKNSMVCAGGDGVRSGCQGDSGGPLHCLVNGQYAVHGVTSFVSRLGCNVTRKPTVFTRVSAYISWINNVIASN
test-summary: Intrinsic fluorescence quenching of PPE: Stern-Volmer, binding constants, thermodynamics
assay-conditions: van't Hoff, 298, 303, 310 K
Could you please report measured ΔH for the items listed next?
Give bare numbers, in kcal/mol.

{"compound": "O=c1cc(-c2ccc(O)c(O)c2)oc2cc(O)cc(O)c12", "ΔH, kcal/mol": -6.0327}
{"compound": "O=c1c(O[C@@H]2O[C@H](CO)[C@H](O)[C@H](O)[C@H]2O)c(-c2ccc(O)c(O)c2)oc2cc(O)cc(O)c12 [hyperoside]", "ΔH, kcal/mol": -6.5753}
{"compound": "O=c1cc(-c2ccc(O)c(O)c2)oc2cc(O[C@@H]3O[C@H](CO)[C@@H](O)[C@H](O)[C@H]3O)cc(O)c12 [luteoloside]", "ΔH, kcal/mol": -0.6989}

Could you now consider this next compound?
Entry under review: O=c1c(O)c(-c2ccc(O)c(O)c2)oc2cc(O)cc(O)c12 . Reported ΔH?
-1.901

---

measured-on: porcine pancreatic elastase (PPE) (Sus scrofa)
Construct: purchased Sigma-Aldrich (St. Louis, MO, United States)
test-summary: Intrinsic fluorescence quenching of PPE: Stern-Volmer, binding constants, thermodynamics
assay-conditions: 298 K
observation-type: Kq quenching rate constant

Example entries begin here.
{"compound": "O=c1cc(-c2ccc(O)c(O)c2)oc2cc(O)cc(O)c12", "Kq quenching rate constant": "1.15 10^12 L•mol^−1•s^−1"}
{"compound": "O=c1c(O)c(-c2ccc(O)c(O)c2)oc2cc(O)cc(O)c12", "Kq quenching rate constant": "0.59 10^12 L•mol^−1•s^−1"}

For every record below, what is its Kq quenching rate constant?
1. O=c1cc(-c2ccc(O)c(O)c2)oc2cc(O[C@@H]3O[C@H](CO)[C@@H](O)[C@H](O)[C@H]3O)cc(O)c12 [luteoloside]
2. O=c1c(O[C@@H]2O[C@H](CO)[C@H](O)[C@H](O)[C@H]2O)c(-c2ccc(O)c(O)c2)oc2cc(O)cc(O)c12 [hyperoside]

1. 1.79 10^12 L•mol^−1•s^−1
2. 5.47 10^12 L•mol^−1•s^−1

---

Please provide measured n number of binding sites for the entries that follow.
measured-on: porcine pancreatic elastase (PPE) (Sus scrofa)
Construct: purchased Sigma-Aldrich (St. Louis, MO, United States)
test-summary: Intrinsic fluorescence quenching of PPE: Stern-Volmer, binding constants, thermodynamics
assay-conditions: 303 K
Description: Fluorescence measurements were performed using a model F-7000 fluorescence spectrometer (Hitachi, Tokyo, Japan). Elastase solution (2,000 μL in Tris–HCl buffer solution) was mixed with inhibitor solutions at different concentrations in a 1.0 cm quartz cell at 298, 303, and 310 K. The final concentrations of the four natural flavonoids and elastase were identical to those used to obtain the synchronous fluorescence spectra. […]
Numbers only.

Sample answers from the record:
{"molecule": "O=c1c(O[C@@H]2O[C@H](CO)[C@H](O)[C@H](O)[C@H]2O)c(-c2ccc(O)c(O)c2)oc2cc(O)cc(O)c12 [hyperoside]", "n number of binding sites": 1.56}
{"molecule": "O=c1cc(-c2ccc(O)c(O)c2)oc2cc(O)cc(O)c12", "n number of binding sites": 1.11}
{"molecule": "O=c1c(O)c(-c2ccc(O)c(O)c2)oc2cc(O)cc(O)c12", "n number of binding sites": 0.99}

Attention now turns to another entry.
Quick check: n number of binding sites on porcine pancreatic elastase (PPE) (Sus scrofa), item O=c1cc(-c2ccc(O)c(O)c2)oc2cc(O[C@@H]3O[C@H](CO)[C@@H](O)[C@H](O)[C@H]3O)cc(O)c12 [luteoloside] ?
0.93
